tested on: SF-268 CNS; assay: NCI tumour cell line growth inhibition, 48 h; in the data active means GI50 below about 0.43 µM; inactive means the rest
Mark one answer only. Choices: TRUE = active, FALSE = inactive

Solved cases below.
Cc1ccc(C(=O)NC2CC2)cc1-c1ccc2[nH]ncc2c1 :: FALSE
C[CH2][Sn]([CH2]C)([O]C(=O)c1ccc(F)cc1)[O]C(=O)c1ccc(F)cc1 :: FALSE
CC(C)c1ccc(NC(=O)Cc2ccc(Nc3ncnc4cc(-c5cnn(CCN(C)C)c5)ccc34)cc2)cc1 :: FALSE

Shift focus to the following entry.
Problem: What did the test return for CC[C@H](C)[C@H](NC(=O)c1cccn1C)C(=O)N(C)[C@H](C[C@@H](OC(C)=O)c1nc(C(=O)N[C@@H](Cc2ccccc2)C[C@H](C)C(=O)OC)cs1)C(C)C ?
Result: TRUE
